Tested on: HT-29
Assay: Antitumor activity against HT29 cells expressing mutated p53
Type: functional, cell-based
Settings: Homo sapiens
# pIC50 per entry
To interpret pIC50, take it as minus log10 of a concentration measured in moles per litre.

{"columns": ["smilesCode", "observedMeasurement"],
 "data": [
  ["O=C1c2cccc3cc([N+](=O)[O-])cc(c23)C(=O)N1CCCN1CCN(CCCNc2ccc3ncn4c5ccccc5c(=O)c2c34)CC1", 6.26]
]}

Now take the following compound into account.
Exam item: State its pIC50 for this compound: `COc1ccc2c(c1)c(=O)c1c(NCCCN3CCN(CCCN4C(=O)c5cccc6cc([N+](=O)[O-])cc(c56)C4=O)CC3)ccc3ncn2c31.CS(=O)(=O)O`
Marked response: 7.10

* * *

Assay: Apparent volume of distribution in F344 rat at 20 mg/kg, iv
Type: ADME, organism-based
Set-up: dose 20 mg/kg, route intravenous
Conditions: in vivo
readout: Vd (L/kg)
Response body: numeric value in L/kg, unit text excluded.

Exam item: State its Vd for this compound: `COc1ccc2c(c1)c(=O)c1c(NCCCN3CCN(CCCN4C(=O)c5cccc6cc([N+](=O)[O-])cc(c56)C4=O)CC3)ccc3ncn2c31.CS(=O)(=O)O`
Marked response: 138

* * *

Experiment: Growth inhibition of human Hep3B cells after 5 days by MTT assay
Format: functional, Hep 3B2
Settings: 120 h
# GI50 per entry
Response body: numeric value in nM, unit text excluded.

Exam item: State its GI50 for this compound: `O=C1c2cccc3cc([N+](=O)[O-])cc(c23)C(=O)N1CCCN1CCN(CCCNc2ccc3ncn4c5ccc(F)cc5c(=O)c2c34)CC1`
Marked response: 4

Exam item: State its GI50 for this compound: `O=C1c2cccc3cc([N+](=O)[O-])cc(c23)C(=O)N1CCCN1CCN(CCCNc2ccc3ncn4c5ccccc5c(=O)c2c34)CC1`
Marked response: 4

Exam item: State its GI50 for this compound: `COc1ccc2c(c1)c(=O)c1c(NCCCN3CCN(CCCN4C(=O)c5cccc6cc([N+](=O)[O-])cc(c56)C4=O)CC3)ccc3ncn2c31.CS(=O)(=O)O`
Marked response: 2.5

* * *

Assay: Apparent volume of distribution in NCR nu/nu mouse at 20 mg/kg, iv
Type: ADME, organism-based
Parameters: dose 20 mg/kg, route intravenous
Conditions: in vivo
readout: Vd (L/kg)
Response body: numeric value in L/kg, unit text excluded.

Exam item: State its Vd for this compound: `COc1ccc2c(c1)c(=O)c1c(NCCCN3CCN(CCCN4C(=O)c5cccc6cc([N+](=O)[O-])cc(c56)C4=O)CC3)ccc3ncn2c31.CS(=O)(=O)O`
Marked response: 57

* * *

Test: Growth inhibition of human Hep3B cells after 5 days by MTT assay
Type: functional, Hep 3B2
Conditions: 120 h
readout: GI50 (nM)
Response body: numeric value in nM, unit text excluded.

Exam item: State its GI50 for this compound: `COc1ccc2c(c1)c(=O)c1c(NCCCN3CCN(CCCN4C(=O)c5cccc6cccc(c56)C4=O)CC3)ccc3ncn2c31`
Marked response: 3.5

Exam item: State its GI50 for this compound: `O=C1c2cccc3cccc(c23)C(=O)N1CCCN1CCN(CCCNc2ccc3ncn4c5ccccc5c(=O)c2c34)CC1`
Marked response: 22

Exam item: State its GI50 for this compound: `O=C1c2cccc3c([N+](=O)[O-])ccc(c23)C(=O)N1CCCN1CCN(CCCNc2ccc3ncn4c5ccccc5c(=O)c2c34)CC1`
Marked response: 18

Exam item: State its GI50 for this compound: `COc1ccc2c(c1)c(=O)c1c(NCCCN3CCN(CCCN4C(=O)c5cccc6c([N+](=O)[O-])ccc(c56)C4=O)CC3)ccc3ncn2c31`
Marked response: 5
